Where these numbers come from: patent US20170334899A1

- Tested on: HeLa
- Test Method Notes: Proliferation assay (crystal violet), HeLa
- Format: cell-based
- Details: Homo sapiens, HeLa, 96 h, HeLa cells; 4 days incubation; crystal violet staining; read-out: IC50 inhibition of proliferation, HeLa
Measured Parameter: pIC50
In textbook form, pIC50 equals minus log to base ten of the concentration in mol/L.

# Molecule, Measured Parameter, Recorded Value
data = [
    ("Cc1nsc(Nc2cncc(C(F)(F)F)n2)c1C(=O)Nc1ccc(OC2CCN(C(=O)OC(C)(C)C)CC2)nc1", "pIC50", 6.04),
]

Please report the recorded pIC50 for `COCCOc1ccc(NC(=O)c2c(C)nsc2Nc2nc3c(C(F)(F)F)cccc3s2)cn1` .
6.04

Please report the recorded pIC50 for `Cc1nsc(Nc2cnc3ccccc3n2)c1C(=O)Nc1ccc(OC2CCN(C(=O)OC(C)(C)C)CC2)nc1` .
5.92

====

- Test system: HeLa
- Test Method Notes: Proliferation assay (crystal violet), HeLa
- Type: cell-based
- Details: Homo sapiens, HeLa, 96 h, HeLa cells; 4 days incubation; crystal violet staining; read-out: IC50 inhibition of proliferation, HeLa
Measured Parameter: pIC50
In textbook form, pIC50 equals minus log to base ten of the concentration in mol/L.

Please report the recorded pIC50 for Cc1nsc(Nc2cnc(C(F)(F)F)cn2)c1C(=O)Nc1ccc(OCC2CCN(CCC(F)(F)F)CC2(F)F)nc1 (centres unmarked) .
6.47

Please report the recorded pIC50 for `Cc1nsc(Nc2cnc(C(F)(F)F)cn2)c1C(=O)Nc1ccc(OC2CCN(C(=O)OC(C)(C)C)CC2)c(F)c1` .
6.77

Please report the recorded pIC50 for `Cc1nsc(Nc2cnccn2)c1C(=O)Nc1ccc(C(=O)OC(C)(C)C)cc1` .
5.42

====

- Experimental Target: human kinase Mps-1 (Homo sapiens, UniProt P33981)
- Construct: N-terminally GST-tagged human full length recombinant Mps-1 kinase; GST (N)
- Sequence (P33981 1-857): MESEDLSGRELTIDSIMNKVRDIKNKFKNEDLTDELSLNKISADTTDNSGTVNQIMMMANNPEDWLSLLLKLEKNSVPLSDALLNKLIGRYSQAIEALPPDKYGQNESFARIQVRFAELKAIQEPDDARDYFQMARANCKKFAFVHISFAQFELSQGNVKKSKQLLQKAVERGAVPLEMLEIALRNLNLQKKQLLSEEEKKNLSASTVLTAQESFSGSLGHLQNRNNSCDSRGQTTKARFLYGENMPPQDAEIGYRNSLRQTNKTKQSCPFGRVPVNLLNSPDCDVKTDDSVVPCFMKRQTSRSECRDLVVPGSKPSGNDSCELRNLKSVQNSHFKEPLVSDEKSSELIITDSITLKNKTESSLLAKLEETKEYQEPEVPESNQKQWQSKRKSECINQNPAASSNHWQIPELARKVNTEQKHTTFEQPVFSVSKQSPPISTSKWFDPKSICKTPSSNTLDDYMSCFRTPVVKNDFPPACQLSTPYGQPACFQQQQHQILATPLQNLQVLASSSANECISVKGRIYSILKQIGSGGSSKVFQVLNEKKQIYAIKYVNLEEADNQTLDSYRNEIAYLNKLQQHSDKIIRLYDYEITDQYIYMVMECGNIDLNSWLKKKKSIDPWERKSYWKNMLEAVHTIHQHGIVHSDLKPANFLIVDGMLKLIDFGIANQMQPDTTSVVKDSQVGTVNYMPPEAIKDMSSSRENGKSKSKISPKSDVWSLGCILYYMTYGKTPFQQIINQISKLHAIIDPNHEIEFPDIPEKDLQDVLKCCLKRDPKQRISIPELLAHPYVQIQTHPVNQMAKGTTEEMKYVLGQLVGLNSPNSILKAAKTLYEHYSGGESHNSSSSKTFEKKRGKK
- Test Method Notes: Mps-1 kinase assay (TR-FRET)
- Details: Mps-1 TR-FRET kinase assay; avg; read-out: Mps1 avg (IC50 [mol/l])
pIC50: −log10 of the molar value.
pIC50 values, listed per item

Solved cases below.
# Compound, pIC50
rows = [
    ("Cc1nsc(Nc2cnc(C(F)(F)F)cn2)c1C(=O)Nc1ccc(OCCN)c(F)c1", "< 4.70"),
    ("Cc1nsc(Nc2cnc(C(F)(F)F)cn2)c1C(=O)Nc1ccc(O[C@@H]2CCN(CC(F)(F)F)C[C@H]2F)nc1", "< 4.70"),
]

Please report the recorded pIC50 for `Cc1nsc(Nc2cncc(C(F)(F)F)n2)c1C(=O)Nc1ccc(F)c(OC2CCN(C(=O)OC(C)(C)C)CC2)c1` .
< 4.70

Please report the recorded pIC50 for `Cc1nsc(Nc2cnc3ccccc3n2)c1C(=O)Nc1ccc(F)c(C(N)=O)c1` .
5.24

Please report the recorded pIC50 for `Cc1nsc(Nc2cncc(C(F)(F)F)n2)c1C(=O)Nc1ccc(F)c(C(N)=O)c1` .
4.77
